Source listed as patent EP1789452B1.

Reported IC50 values for a set of binders
- measured_target: T1, human GPCR135 (human, UniProt Q9NSD7 1-469)
- T1 construct: also called SALPR
- T1 sequence: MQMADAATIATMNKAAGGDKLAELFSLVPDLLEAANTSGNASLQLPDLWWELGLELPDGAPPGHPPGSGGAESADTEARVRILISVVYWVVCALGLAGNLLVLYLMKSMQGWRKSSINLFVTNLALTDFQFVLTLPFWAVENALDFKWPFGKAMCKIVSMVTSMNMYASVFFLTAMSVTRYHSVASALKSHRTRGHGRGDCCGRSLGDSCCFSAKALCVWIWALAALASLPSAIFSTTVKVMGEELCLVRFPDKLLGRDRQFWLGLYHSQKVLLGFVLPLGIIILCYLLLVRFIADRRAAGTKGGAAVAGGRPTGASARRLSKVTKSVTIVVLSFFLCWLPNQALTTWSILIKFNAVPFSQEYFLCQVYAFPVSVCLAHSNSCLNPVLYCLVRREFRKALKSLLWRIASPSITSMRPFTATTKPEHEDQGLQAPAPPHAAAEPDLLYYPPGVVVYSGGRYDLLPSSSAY
- test_name: competition with 100 pM [125I]-relaxin-3, COS-7 membranes with human GPCR135
Ends that are not written are not given here.
Give a bare numeral; the unit nM is implied.

Take a look at these entries with their results.
Relaxin-3/Relaxin-2 (R3/R2) chimeric polypeptide (ligand, human, disulfide (positions not given here); also: two chains joined by disulfide bonds, pairing not given here, domain: A-chain; Two chains joined by disulfide bonds; FLAG tag removed) chain 1: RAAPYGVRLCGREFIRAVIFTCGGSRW chain 2: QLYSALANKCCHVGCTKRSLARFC	1.2
Relaxin-3/Relaxin-1 (R3/R1) chimeric polypeptide (ligand, human, disulfide (positions not given here), domain: A-chain; Two chains joined by disulfide bonds; Made in COS-7 cells with furin, FLAG tag removed with enterokinase) chain 1: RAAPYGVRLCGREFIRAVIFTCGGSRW chain 2: RPYVALFEKCCLIGCTKRSLAKYC	2.9

[Q] Look at this binder and give its reported IC50. Relaxin-3/INSL6 (R3/I6) chimeric polypeptide (ligand, human, disulfide (positions not given here), domain: A-chain; Two chains joined by disulfide bonds; FLAG tag removed) chain 1: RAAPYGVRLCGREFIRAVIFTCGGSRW chain 2: GYSEKCCLTGCTKEELSIAC
[A] 9.5

[Q] Further, for Relaxin-3/INSL5 (R3/I5) chimeric polypeptide (ligand, disulfide (positions not given here); also: two chains joined by disulfide bonds, places not given here, Two chains joined by disulfide bonds; FLAG tag removed with enterokinase; also called R3/I5 chimera; I5/R3) chain 1: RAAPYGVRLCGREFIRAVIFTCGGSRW chain 2: DLQTLCCTDGCSMTDLSALC ?
[A] 0.68
